Reference source: paper PMC9398548

Target: GLUT1 (Homo sapiens, UniProt P11166)
Sequence (P11166 1-492): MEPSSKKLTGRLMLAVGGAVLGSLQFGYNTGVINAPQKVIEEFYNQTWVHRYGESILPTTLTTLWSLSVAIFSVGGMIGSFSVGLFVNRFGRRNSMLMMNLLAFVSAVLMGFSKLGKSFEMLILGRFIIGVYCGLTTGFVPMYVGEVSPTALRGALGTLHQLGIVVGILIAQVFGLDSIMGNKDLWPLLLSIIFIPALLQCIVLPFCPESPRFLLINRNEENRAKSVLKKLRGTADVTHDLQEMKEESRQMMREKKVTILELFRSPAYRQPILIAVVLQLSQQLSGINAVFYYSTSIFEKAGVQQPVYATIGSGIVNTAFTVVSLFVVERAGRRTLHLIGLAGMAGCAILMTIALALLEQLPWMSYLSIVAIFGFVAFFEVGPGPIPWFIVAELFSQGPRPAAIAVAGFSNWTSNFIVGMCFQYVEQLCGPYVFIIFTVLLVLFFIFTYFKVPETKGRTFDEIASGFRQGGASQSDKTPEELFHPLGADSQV
Format: cell-based
Settings: read-out: GLUT1 IC50; hxt0 yeast cells expressing GLUT1, 5 mM C14-glucose, 10 minutes
endpoint name: IC50 (µM)
Answers are plain numbers, in µM.

Exercise: Write down IC50 measured for item O=C(CN1C(=O)SC(=Cc2ccc(Cl)cc2)C1=O)Nc1ccc(Cl)cc1C(F)(F)F [Compound G5]
Key: 5.4
